The compounds listed here are annotated with their MHC.
# Test system: Erythrocyte
# Assay text: Hemolytic activity in sheep RBC assessed as minimal hemolytic concentration causing 10% hemolysis incubated for 1 hr by ELISA
# Type: toxicity, cell-based, Ovis aries
Field: numeric (µM). Do not append units.

Query: Provide one value: measured MHC of N=C(N)NCCN(CCNC(=N)N)c1nc(NCc2ccccc2)nc(N2CC(Cc3ccccc3)N(c3nc(NCc4ccccc4)nc(N(CCNC(=N)N)CCNC(=N)N)n3)CC2Cc2ccccc2)n1 (stereo not given)
Reply: 124.5

Could you now consider this next compound?
Query: For the compound N=C(N)NCCCN(CCCNC(=N)N)c1nc(NCc2ccccc2)nc(N2CC(Cc3ccccc3)N(c3nc(NCc4ccc5ccccc5c4)nc(N(CCCNC(=N)N)CCCNC(=N)N)n3)CC2Cc2ccccc2)n1 (stereo not given) , report MHC.
Reply: 56.8

###

# Test system: Staphylococcus aureus
# Assay text: Antibacterial activity against Staphylococcus aureus KCTC 1621 strain assessed as bacterial growth inhibition measured at 18 to 24 hrs by microdilution assay
# Type: functional
# Recorded conditions: time 18-24 hrs
I'd appreciate it if you marked entries 1 when MIC is lower than 9 µM and 0 when it is not.

Answered cases to consult:
Query: Is MIC of N=C(N)NCCCN(CCCNC(=N)N)c1nc(NCc2ccccc2)nc(N2CC(Cc3ccccc3)N(c3nc(NCc4ccc5ccccc5c4)nc(N(CCCNC(=N)N)CCCNC(=N)N)n3)CC2Cc2ccccc2)n1 (stereo not drawn) strictly below 9 µM?
Reply: 0

Query: Threshold test, MIC < 9 µM: NCCCCNc1nc(NCCCCN)nc(N2CC(Cc3ccccc3)N(c3nc(NCCCCN)nc(NCCCCN)n3)CC2Cc2ccccc2)n1 (stereo not drawn)
Reply: 1

Query: Record N=C(N)NCCCCNc1nc(NCCCCN)nc(N2CCN(c3nc(NCCCCN)nc(NCCCCN)n3)CC2Cc2ccccc2)n1 (stereo not drawn) : is its MIC strictly below 9 µM?
Reply: 0

Query: For this molecule, is MIC lower than 9 µM? N=C(N)NCCCN(CCCNC(=N)N)c1nc(NCc2ccccc2)nc(N2CC(Cc3ccccc3)N(c3nc(NCc4ccccc4)nc(N(CCCNC(=N)N)CCCNC(=N)N)n3)CC2Cc2ccccc2)n1 (stereo not drawn)
Reply: 1

Query: is_below(MIC, 9 µM) for N=C(N)NCCCCNc1nc(NCCCCNC(=N)N)nc(N2CC(Cc3ccccc3)N(c3nc(NCCCCNC(=N)N)nc(NCCCCNC(=N)N)n3)CC2Cc2ccccc2)n1 (stereo not drawn) ?
Reply: 1

More entries:
Query: Please state whether MIC is below 9 µM for N=C(N)NCCNc1nc(NCCNC(=N)N)nc(N2CC(Cc3ccccc3)N(c3nc(NCCNC(=N)N)nc(NCCNC(=N)N)n3)CC2Cc2ccccc2)n1 (stereo not drawn)
Reply: 1

Query: Please state whether MIC is below 9 µM for N=C(N)NCCNc1nc(NCCNC(=N)N)nc(N2CCN(c3nc(NCCNC(=N)N)nc(NCCNC(=N)N)n3)C(Cc3ccccc3)C2)n1 (stereo not drawn)
Reply: 0

Query: A record lists N=C(N)NCCCCNc1nc(NCCCCNC(=N)N)nc(N2CCN(c3nc(NCCCCNC(=N)N)nc(NCCCCNC(=N)N)n3)C(Cc3ccccc3)C2)n1 (stereo not drawn) . Is its MIC below 9 µM?
Reply: 0

###

# Tested on: Pseudomonas aeruginosa
# Assay text: Synergistic antibacterial activity against multidrug-resistant Pseudomonas aeruginosa CCARM 2095 strain assessed as bacterial growth inhibition in presence of ciprofloxacin by checkerboard assay
# Format: functional
Here, each record is paired with measured MIC data.
Respond numerically; units are µg/mL and should not be typed.

Query: Identify MIC associated with the compound NCCNc1nc(NCCN)nc(N2CC(Cc3ccccc3)N(c3nc(NCCN)nc(NCCN)n3)CC2Cc2ccccc2)n1 (centres undefined)
Reply: 4

Query: Query MIC for NCCCN(CCCN)c1nc(NCc2ccccc2)nc(N2CC(Cc3ccccc3)N(c3nc(NCc4ccccc4)nc(N(CCCN)CCCN)n3)CC2Cc2ccccc2)n1 (centres undefined)
Reply: 4

Query: Provide only the value of recorded MIC for NCCN(CCN)c1nc(NCc2ccccc2)nc(N2CC(Cc3ccccc3)N(c3nc(NCc4ccccc4)nc(N(CCN)CCN)n3)CC2Cc2ccccc2)n1 (centres undefined)
Reply: 2

Kindly consider the entry below.
Query: Return the recorded MIC value; entry: NCCCCNc1nc(NCCCCN)nc(N2CC(Cc3ccccc3)N(c3nc(NCCCCN)nc(NCCCCN)n3)CC2Cc2ccccc2)n1 (centres undefined)
Reply: 8

###

# Tested on: Cell membrane
# Assay text: Induction of cell membrane damage in Escherichia coli KCTC 1682 assessed as increase in fluorescent intensity at 2 times MIC incubated for 30 mins by PI staining based flow cytometry assay (reference value: 9.79 %)
# Assay type: subcellular
Label true when Flu intensity is at or above 6%; anything below gets false.

Examples from the recorded data:
Query: Determine whether measured Flu intensity meets or exceeds 6% for NCCNc1nc(NCCN)nc(N2CC(Cc3ccccc3)N(c3nc(NCCN)nc(NCCN)n3)CC2Cc2ccccc2)n1 (stereo not given)
Reply: true

Query: Textbook exercise: given the entry N=C(N)NCCNc1nc(NCCNC(=N)N)nc(N2CC(Cc3ccccc3)N(c3nc(NCCNC(=N)N)nc(NCCNC(=N)N)n3)CC2Cc2ccccc2)n1 (stereo not given) , state whether its Flu intensity is greater than or equal to 6%.
Reply: false

Query: Reported Flu intensity at or above 6%? NCCCN(CCCN)c1nc(NCc2ccccc2)nc(N2CC(Cc3ccccc3)N(c3nc(NCc4ccccc4)nc(N(CCCN)CCCN)n3)CC2Cc2ccccc2)n1 (stereo not given)
Reply: false

For the next question, use this molecule.
Query: Assess whether reported Flu intensity for NCCN(CCN)c1nc(NCc2ccccc2)nc(N2CC(Cc3ccccc3)N(c3nc(NCc4ccccc4)nc(N(CCN)CCN)n3)CC2Cc2ccccc2)n1 (stereo not given) sits at 6% or higher.
Reply: true

###

# System: Staphylococcus aureus
# Assay text: Antibacterial activity against Staphylococcus aureus KCTC 1621 strain assessed as bacterial growth inhibition measured at 18 to 24 hrs by microdilution assay
# Format: functional
# Recorded conditions: time 18-24 hrs
Endpoint label: MIC (µM)
Field: numeric (µM). Do not append units.

Look over these answered cases.
Query: Retrieve MIC measured for NCCN(CCN)c1nc(NCc2ccccc2)nc(N2CC(Cc3ccccc3)N(c3nc(NCc4ccccc4)nc(N(CCN)CCN)n3)CC2Cc2ccccc2)n1 (stereo not drawn) and print it.
Reply: 5.4

Query: Note MIC for the molecule shown: N=C(N)NCCCNc1nc(NCCCN)nc(N2CCN(c3nc(NCCCN)nc(NCCCN)n3)CC2Cc2ccccc2)n1 (stereo not drawn)
Reply: 12

Proceed to the following item.
Query: Supply measured MIC of N=C(N)NCCN(CCNC(=N)N)c1nc(NCc2ccccc2)nc(N2CC(Cc3ccccc3)N(c3nc(NCc4ccccc4)nc(N(CCNC(=N)N)CCNC(=N)N)n3)CC2Cc2ccccc2)n1 (stereo not drawn) in your reply.
Reply: 4.4

###

# Tested on: Staphylococcus aureus
# Assay text: Antibacterial activity against Staphylococcus aureus KCTC 1621 strain assessed as bacterial growth inhibition measured at 18 to 24 hrs in presence of 20% human serum by microdilution assay
# Assay type: functional
# Recorded conditions: time 18-24 hrs
# strict inequality: MIC < 10 µM yields condition met, everything else yields condition not met

Query: API: query returns whether the compound falls strictly under 10 µM in MIC. Query: N=C(N)NCCNc1nc(NCCNC(=N)N)nc(N2CC(Cc3ccccc3)N(c3nc(NCCNC(=N)N)nc(NCCNC(=N)N)n3)CC2Cc2ccccc2)n1 (stereo not given)
Reply: condition met

Query: Just wondering, is MIC of NCCNc1nc(NCCN)nc(N2CC(Cc3ccccc3)N(c3nc(NCCN)nc(NCCN)n3)CC2Cc2ccccc2)n1 (stereo not given) below 10 µM?
Reply: condition not met

Query: # check: MIC < 10 µM for NCCCCNc1nc(NCCCCN)nc(N2CC(Cc3ccccc3)N(c3nc(NCCCCN)nc(NCCCCN)n3)CC2Cc2ccccc2)n1 (stereo not given)
Reply: condition not met

Query: Dear reviewer, please state whether NCCN(CCN)c1nc(NCc2ccccc2)nc(N2CC(Cc3ccccc3)N(c3nc(NCc4ccccc4)nc(N(CCN)CCN)n3)CC2Cc2ccccc2)n1 (stereo not given) has MIC strictly beneath 10 µM.
Reply: condition not met

###

# System: Pseudomonas aeruginosa
# Assay text: Antibiofilm activity against multidrug-resistant Pseudomonas aeruginosa assessed as biofilm eradication
# Type: functional
Endpoint label: MBEC90

Query: Look up and report measured MBEC90 for this entry: N=C(N)NCCCNc1nc(NCCCNC(=N)N)nc(N2CC(Cc3ccccc3)N(c3nc(NCCCNC(=N)N)nc(NCCCNC(=N)N)n3)CC2Cc2ccccc2)n1 (stereo not given)
Reply: 145.2 µM

Query: Assign MBEC90 to the following record: NCCN(CCN)c1nc(NCc2ccccc2)nc(N2CC(Cc3ccccc3)N(c3nc(NCc4ccccc4)nc(N(CCN)CCN)n3)CC2Cc2ccccc2)n1 (stereo not given)
Reply: 10.4 µM

Query: Supply MBEC90 value. Item: N=C(N)NCCCCNc1nc(NCCCCNC(=N)N)nc(N2CC(Cc3ccccc3)N(c3nc(NCCCCNC(=N)N)nc(NCCCCNC(=N)N)n3)CC2Cc2ccccc2)n1 (stereo not given)
Reply: 68.3 µM

Query: Please give the documented MBEC90 of NCCCN(CCCN)c1nc(NCc2ccccc2)nc(N2CC(Cc3ccccc3)N(c3nc(NCc4ccccc4)nc(N(CCCN)CCCN)n3)CC2Cc2ccccc2)n1 (stereo not given)
Reply: 39.8 µM

Query: Complete the entry with MBEC90 for NCCNc1nc(NCCN)nc(N2CC(Cc3ccccc3)N(c3nc(NCCN)nc(NCCN)n3)CC2Cc2ccccc2)n1 (stereo not given)
Reply: 97.3 µM

The reported measurements were obtained from ChEMBL document CHEMBL5331051.
